# SYSTEM TESTED: Isoleucine--tRNA ligase, mitochondrial (Homo sapiens); also: in the data inactive means no Kd found up to 30 µM
# Sequence (Q9NSE4 whole entry): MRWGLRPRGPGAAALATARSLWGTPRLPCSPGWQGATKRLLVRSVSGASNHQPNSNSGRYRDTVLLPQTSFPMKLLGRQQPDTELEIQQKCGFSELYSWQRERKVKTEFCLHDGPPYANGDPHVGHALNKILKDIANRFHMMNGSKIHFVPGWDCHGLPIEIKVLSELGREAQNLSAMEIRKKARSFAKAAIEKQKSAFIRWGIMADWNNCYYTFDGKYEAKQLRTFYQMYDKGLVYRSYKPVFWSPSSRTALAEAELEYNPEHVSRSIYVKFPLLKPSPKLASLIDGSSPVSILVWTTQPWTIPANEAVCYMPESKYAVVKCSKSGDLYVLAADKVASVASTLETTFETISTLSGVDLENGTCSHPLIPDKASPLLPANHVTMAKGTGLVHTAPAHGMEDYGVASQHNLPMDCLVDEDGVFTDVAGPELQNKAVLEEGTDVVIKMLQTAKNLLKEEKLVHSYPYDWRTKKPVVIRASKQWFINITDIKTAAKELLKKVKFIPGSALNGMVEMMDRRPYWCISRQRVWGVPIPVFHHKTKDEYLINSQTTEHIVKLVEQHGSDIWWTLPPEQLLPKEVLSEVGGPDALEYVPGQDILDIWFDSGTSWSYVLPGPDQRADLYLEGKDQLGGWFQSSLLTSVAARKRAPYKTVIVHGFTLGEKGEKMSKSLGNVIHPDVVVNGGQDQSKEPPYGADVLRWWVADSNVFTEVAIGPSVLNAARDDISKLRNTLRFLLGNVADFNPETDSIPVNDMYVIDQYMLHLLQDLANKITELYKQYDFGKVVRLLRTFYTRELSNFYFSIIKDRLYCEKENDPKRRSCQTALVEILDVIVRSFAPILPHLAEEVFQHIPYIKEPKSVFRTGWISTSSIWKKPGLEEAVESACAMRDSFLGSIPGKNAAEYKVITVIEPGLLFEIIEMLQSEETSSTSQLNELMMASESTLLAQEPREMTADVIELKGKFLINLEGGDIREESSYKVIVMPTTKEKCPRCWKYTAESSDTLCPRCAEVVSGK
Activity calls are given as the source filed them.
READOUT: Kd

compound="Cc1[nH]c(/C=C2\\C(=O)Nc3ccccc32)c(C)c1CCC(=O)O [ORANTINIB]" reading="> 30 µM (inactive)"
compound="N#CC[C@H](C1CCCC1)n1cc(-c2ncnc3[nH]ccc23)cn1 [RUXOLITINIB]" reading="> 30 µM (inactive)"
compound=Cc1nc2cc(-c3nn(C(C)C)c4ncnc(N)c34)ccc2o1 reading="> 30 µM (inactive)"
compound="COc1cc([C@@H]2c3cc4c(cc3[C@H](O)[C@H]3COC(=O)[C@@H]23)OCO4)cc(OC)c1OC [AXL-1717]" reading="> 30 µM (inactive)"
compound="Cc1cc(Nc2ncnc3ccc(NC4=NC(C)(C)CO4)cc23)ccc1Oc1ccn2ncnc2c1 [TUCATINIB]" reading="> 30 µM (inactive)"
compound="CN1C/C=C/CCOc2cccc(c2)-c2ccnc(n2)Nc2cccc(c2)C1 [ZOTIRACICLIB]" reading="> 30 µM (inactive)"

###

Activity calls are given as the source filed them.
Values of Kd reported for AarF domain-containing protein kinase 1 (Homo sapiens, UniProt Q86TW2) appear below.
READOUT: Kd

compound="O=C1NC(=O)[C@@H](c2cn3c4c(cccc24)CCC3)[C@@H]1c1c[nH]c2ccccc12 [TIVANTINIB]" readout=Kd reading="> 30 µM (inactive)"
compound=CNC(=O)c1ccccc1Sc1ccc2c(/C=C/c3ccccn3)n[nH]c2c1 readout=Kd reading="> 30 µM (inactive)"
compound=COc1cc2c(Nc3ccc(Cl)c(Cl)c3F)ncnc2cc1OC[C@@H]1C[C@@H]2CN(C)C[C@@H]2C1 readout=Kd reading="> 30 µM (inactive)"
compound=C[C@H]1CNCCCN1S(=O)(=O)c1cccc2cncc(F)c12 readout=Kd reading="> 30 µM (inactive)"
compound=NC1(c2ccc(-c3nc4ccn5c(=O)[nH]nc5c4cc3-c3ccccc3)cc2)CCC1 readout=Kd reading="> 30 µM (inactive)"
compound=Cc1cc(Nc2ncc(Cl)c(Nc3ccccc3S(=O)(=O)C(C)C)n2)c(OC(C)C)cc1C1CCNCC1 readout=Kd reading="> 30 µM (inactive)"
compound=Cc1cnc(NC(=O)Nc2cc(Br)c(C)cc2OC[C@@H]2CNCCO2)cn1 readout=Kd reading="> 30 µM (inactive)"
compound=CC(=O)c1cnc2ccc(-c3cc(Cl)c(O)c(Cl)c3)nc2c1N[C@H]1CC[C@H](CN(C)C)CC1 readout=Kd reading="> 30 µM (inactive)"

###

# SYSTEM TESTED: Ribosomal protein S6 kinase alpha-1 (Homo sapiens, UniProt Q15418); also: in the data inactive means no Kd found up to 30 µM
# Sequence (Q15418 whole entry): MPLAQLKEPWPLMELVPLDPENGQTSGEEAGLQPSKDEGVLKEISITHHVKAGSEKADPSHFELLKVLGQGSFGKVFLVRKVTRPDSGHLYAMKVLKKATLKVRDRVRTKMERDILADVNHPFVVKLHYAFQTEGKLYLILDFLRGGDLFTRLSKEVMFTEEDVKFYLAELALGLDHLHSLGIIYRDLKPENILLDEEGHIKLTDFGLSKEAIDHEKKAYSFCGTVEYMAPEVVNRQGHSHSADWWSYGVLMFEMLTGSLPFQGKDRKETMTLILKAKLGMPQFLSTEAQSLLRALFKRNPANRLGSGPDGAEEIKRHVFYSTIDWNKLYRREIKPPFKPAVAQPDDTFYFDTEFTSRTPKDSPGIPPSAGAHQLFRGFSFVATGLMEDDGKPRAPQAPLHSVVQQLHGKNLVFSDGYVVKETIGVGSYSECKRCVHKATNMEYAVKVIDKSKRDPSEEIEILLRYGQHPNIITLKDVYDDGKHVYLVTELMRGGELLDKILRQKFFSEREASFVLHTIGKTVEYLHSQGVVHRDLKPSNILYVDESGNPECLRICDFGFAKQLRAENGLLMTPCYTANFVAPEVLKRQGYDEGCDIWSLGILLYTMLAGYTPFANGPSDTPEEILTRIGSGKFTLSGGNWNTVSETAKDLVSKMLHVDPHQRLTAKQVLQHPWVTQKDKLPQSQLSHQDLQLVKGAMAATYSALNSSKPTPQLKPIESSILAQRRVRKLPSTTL
Activity calls are given as the source filed them.
Classes used: Y (active), N (inactive)

compound="FC(F)(F)c1ccc(/C=C/c2nc(COc3ccc(CCCCn4ccnn4)cc3)co2)cc1 [MUBRITINIB]" class_label=N
compound="COc1cc(Nc2ncc3c(n2)-c2ccc(Cl)cc2C(c2c(F)cccc2OC)=NC3)ccc1C(=O)O [ALISERTIB]" class_label=N
compound="COc1cc2c(Nc3ccc(Cl)c(Cl)c3F)ncnc2cc1OC[C@@H]1C[C@@H]2CN(C)C[C@@H]2C1 [TESEVATINIB]" class_label=N
compound="Cc1csc(-c2nnc(Nc3ccc(Oc4ncccc4-c4ccnc(N)n4)cc3)c3ccccc23)c1 [AMG-900]" class_label=N
compound="Cc1cc(Nc2ncc(Cl)c(Nc3ccccc3S(=O)(=O)C(C)C)n2)c(OC(C)C)cc1C1CCNCC1 [CERITINIB]" class_label=Y
compound=Cc1nc2cc(-c3nn(C(C)C)c4ncnc(N)c34)ccc2o1 class_label=N
compound="NC1(c2ccc(-c3nc4ccn5c(=O)[nH]nc5c4cc3-c3ccccc3)cc2)CCC1 [MK-2206]" class_label=N
compound="Cc1nc2cc(-n3ncc(C(=O)c4cc5ccccc5[nH]4)c3N)ccc2[nH]1 [FGFR INHIBITOR DEBIO 1347]" class_label=N
compound="CO[C@H]1C[C@@H]2CC[C@@H](C)[C@@](O)(O2)C(=O)C(=O)N2CCCC[C@H]2C(=O)O[C@H]([C@H](C)C[C@@H]2CC[C@@H](OC(=O)C(C)(CO)CO)[C@H](OC)C2)CC(=O)[C@H](C)/C=C(\\C)[C@@H](O)[C@@H](OC)C(=O)[C@H](C)C[C@H](C)/C=C/C=C/C=C/1C [TEMSIROLIMUS]" class_label=N
compound="Cc1cc(C(=O)NOCCO)c(Nc2ccc(I)cc2F)n(C)c1=O [AZD-8330]" class_label=N
compound="CNC(=O)c1nn(C)c2c1C(C)(C)Cc1cnc(Nc3ccc(N4CCN(C)CC4)cc3)nc1-2 [MILCICLIB]" class_label=N
compound="COc1ccc(S(=O)(=O)N(C(C)=O)c2ccccc2/C=C/c2cc[n+]([O-])cc2)cc1 [HMN-214]" class_label=N
compound="O=C(Cc1ccc(-c2ccc(OCCN3CCOCC3)cc2)cn1)NCc1ccccc1 [TIRBANIBULIN]" class_label=N
compound="Cn1ncc(Cl)c1-c1cc(C(=O)N[C@H](CN)Cc2ccc(F)c(F)c2)oc1Cl [UPROSERTIB]" class_label=N
compound="Cc1cnc(NC(=O)Nc2cc(Br)c(C)cc2OC[C@@H]2CNCCO2)cn1 [RABUSERTIB]" class_label=N

###

# SYSTEM TESTED: Mitogen-activated protein kinase kinase kinase 1 (Homo sapiens, UniProt Q13233); also: in the data inactive means no Kd found up to 30 µM
# Sequence (Q13233 whole entry): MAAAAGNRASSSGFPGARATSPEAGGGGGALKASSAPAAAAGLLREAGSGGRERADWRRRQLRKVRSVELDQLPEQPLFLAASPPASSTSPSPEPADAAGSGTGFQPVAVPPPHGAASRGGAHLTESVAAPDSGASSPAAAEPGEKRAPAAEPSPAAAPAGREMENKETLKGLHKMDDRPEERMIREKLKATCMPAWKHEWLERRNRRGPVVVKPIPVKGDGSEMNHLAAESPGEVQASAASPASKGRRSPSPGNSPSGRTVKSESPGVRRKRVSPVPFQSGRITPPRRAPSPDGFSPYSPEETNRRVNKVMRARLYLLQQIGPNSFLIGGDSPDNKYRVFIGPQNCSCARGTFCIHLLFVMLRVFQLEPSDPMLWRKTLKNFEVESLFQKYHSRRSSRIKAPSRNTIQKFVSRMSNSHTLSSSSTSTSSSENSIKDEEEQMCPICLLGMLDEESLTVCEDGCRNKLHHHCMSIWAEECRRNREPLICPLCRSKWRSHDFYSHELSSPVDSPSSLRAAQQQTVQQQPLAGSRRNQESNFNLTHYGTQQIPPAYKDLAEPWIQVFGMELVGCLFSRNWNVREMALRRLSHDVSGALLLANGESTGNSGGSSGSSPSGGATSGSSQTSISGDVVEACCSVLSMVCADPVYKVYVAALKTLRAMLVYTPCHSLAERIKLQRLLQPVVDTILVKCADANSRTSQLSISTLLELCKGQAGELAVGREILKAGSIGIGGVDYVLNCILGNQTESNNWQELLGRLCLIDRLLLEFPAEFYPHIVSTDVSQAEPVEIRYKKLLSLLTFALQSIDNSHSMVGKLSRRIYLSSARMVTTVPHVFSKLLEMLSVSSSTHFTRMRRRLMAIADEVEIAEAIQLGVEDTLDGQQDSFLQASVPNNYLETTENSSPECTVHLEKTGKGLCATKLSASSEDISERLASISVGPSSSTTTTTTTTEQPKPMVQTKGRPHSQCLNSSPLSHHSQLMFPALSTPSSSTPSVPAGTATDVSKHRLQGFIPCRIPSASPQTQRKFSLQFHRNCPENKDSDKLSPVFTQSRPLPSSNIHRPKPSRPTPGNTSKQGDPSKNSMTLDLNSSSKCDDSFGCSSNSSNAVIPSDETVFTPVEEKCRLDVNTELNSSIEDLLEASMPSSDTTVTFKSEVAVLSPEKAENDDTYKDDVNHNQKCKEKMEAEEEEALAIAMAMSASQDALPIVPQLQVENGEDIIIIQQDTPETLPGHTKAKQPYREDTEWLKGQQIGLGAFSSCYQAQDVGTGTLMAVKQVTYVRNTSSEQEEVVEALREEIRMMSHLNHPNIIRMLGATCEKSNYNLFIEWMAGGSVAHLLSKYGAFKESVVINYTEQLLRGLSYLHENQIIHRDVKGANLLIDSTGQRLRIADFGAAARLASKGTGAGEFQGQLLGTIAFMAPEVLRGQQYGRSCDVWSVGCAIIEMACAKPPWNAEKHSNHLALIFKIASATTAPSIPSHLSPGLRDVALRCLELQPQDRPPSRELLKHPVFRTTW
Activity calls are given as the source filed them.
READOUT: Kd

molecule=Cc1cccc(-c2nn3c(c2-c2ccnc4ccc(C(N)=O)cc24)CCC3)n1 readout=Kd reading="> 30 µM (inactive)"
molecule="Cc1[nH]c(/C=C2\\C(=O)Nc3ccccc32)c(C)c1CCC(=O)O [ORANTINIB]" readout=Kd reading="> 30 µM (inactive)"
molecule=CC(=O)NCC(=O)N1[C@@H]2CC[C@H]1c1ccc(Nc3ncc(C(F)(F)F)c(NC4CCC4)n3)cc12 readout=Kd reading="2.18 µM"
molecule="C=CC(=O)Nc1cc2c(Nc3ccc(F)c(Cl)c3)ncnc2cc1C#CC(C)(C)N1CCN(C)CC1 [AV-412 FREE BASE]" readout=Kd reading="7.96 µM (active)"

###

# SYSTEM TESTED: Mitogen-activated protein kinase kinase kinase 2 (Homo sapiens); also: in the data inactive means no Kd found up to 30 µM
# Sequence (Q9Y2U5 whole entry): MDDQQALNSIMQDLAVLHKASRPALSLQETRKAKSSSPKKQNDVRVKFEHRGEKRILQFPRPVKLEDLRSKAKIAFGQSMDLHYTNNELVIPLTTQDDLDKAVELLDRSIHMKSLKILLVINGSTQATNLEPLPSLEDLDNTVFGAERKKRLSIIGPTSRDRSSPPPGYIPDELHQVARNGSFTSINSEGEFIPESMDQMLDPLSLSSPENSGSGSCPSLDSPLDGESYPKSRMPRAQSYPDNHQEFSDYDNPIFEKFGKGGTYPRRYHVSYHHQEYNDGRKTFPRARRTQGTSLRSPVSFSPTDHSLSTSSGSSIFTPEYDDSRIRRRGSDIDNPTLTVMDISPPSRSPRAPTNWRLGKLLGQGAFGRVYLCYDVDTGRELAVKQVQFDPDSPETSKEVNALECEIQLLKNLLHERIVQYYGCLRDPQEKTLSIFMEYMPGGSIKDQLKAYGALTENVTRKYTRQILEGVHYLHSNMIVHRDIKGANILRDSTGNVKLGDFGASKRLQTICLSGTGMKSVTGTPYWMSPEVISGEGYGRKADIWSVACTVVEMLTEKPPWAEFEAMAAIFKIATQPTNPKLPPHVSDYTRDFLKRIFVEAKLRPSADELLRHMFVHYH
Counter-ions that a name gives are not always drawn. Activity calls are given as the source filed them.
Classes used: active, inactive

compound="Cc1cccc(-c2nn3c(c2-c2ccnc4ccc(C(N)=O)cc24)CCC3)n1 [GALUNISERTIB]" class_label=inactive
compound="Cc1[nH]c(/C=C2\\C(=O)Nc3ccccc32)c(C)c1CCC(=O)O [ORANTINIB]" class_label=inactive
compound="Cc1cc(Nc2ncnc3ccc(NC4=NC(C)(C)CO4)cc23)ccc1Oc1ccn2ncnc2c1 [TUCATINIB]" class_label=inactive
compound=COCc1c(-c2ccc(NC(=O)Nc3cc(C(F)(F)F)ccc3F)c(F)c2)c2c(N)ncnn2c1CN1CCOCC1 class_label=inactive
compound="CNC(=O)c1cc(Oc2ccc(NC(=O)Nc3cc(C(C)(C)C)nn3-c3ccc4ncccc4c3)c(F)c2)ccn1 [REBASTINIB]" class_label=inactive
compound="CCS(=O)(=O)N1CCN(c2ccc(Nc3ncc(C(N)=O)c(NC4CC4)n3)cc2)CC1 [Cerdulatinib Hydrochloride]" class_label=active
compound="Cc1csc(-c2nnc(Nc3ccc(Oc4ncccc4-c4ccnc(N)n4)cc3)c3ccccc23)c1 [AMG-900]" class_label=active
compound="Cn1cc(-c2cnn3c(N)c(Br)c([C@@H]4CCCNC4)nc23)cn1 [SCH-900776]" class_label=inactive
compound="CC(C)c1cc(CNc2nc(Nc3cc(C4CC4)[nH]n3)cc(N3CCN(C)CC3)n2)on1 [XL-228]" class_label=inactive
compound="Cc1cc(Nc2ncc(Cl)c(Nc3ccccc3S(=O)(=O)C(C)C)n2)c(OC(C)C)cc1C1CCNCC1 [CERITINIB]" class_label=inactive
compound="Cc1nc(Nc2n[nH]c3c2CN(C(=O)N[C@H](CN(C)C)c2ccccc2)C3(C)C)c2sccc2n1 [PF-03758309]" class_label=inactive
compound="C=CC(=O)Nc1cc2c(Nc3ccc(F)c(Cl)c3)ncnc2cc1C#CC(C)(C)N1CCN(C)CC1 [AV-412 FREE BASE]" class_label=inactive
compound="NC(=O)Nc1cc(-c2cccc(F)c2)sc1C(=O)N[C@H]1CCCNC1 [AZD-7762]" class_label=inactive
compound="CCS(=O)(=O)c1cccc(-c2cc(C(=O)NC3CCN(C)CC3)c(C)c3[nH]c4ncc(C)cc4c23)c1 [TAK-901]" class_label=inactive
compound=Cc1nc2cc(-c3nn(C(C)C)c4ncnc(N)c34)ccc2o1 class_label=inactive
compound="CNC(=O)c1nn(C)c2c1C(C)(C)Cc1cnc(Nc3ccc(N4CCN(C)CC4)cc3)nc1-2 [MILCICLIB]" class_label=inactive
compound="CCOc1cc2ncc(C#N)c(Nc3ccc(F)c(Cl)c3)c2cc1NC(=O)/C=C/CN(C)C [PELITINIB]" class_label=inactive
compound=C[C@@H](Oc1cc(C(=O)Nc2ccc(C(=O)N3CCN(C)CC3)cc2)nnc1N)c1c(Cl)ccc(F)c1Cl class_label=inactive
compound="Cn1cnc2c(F)c(Nc3ccc(Br)cc3F)c(C(=O)NOCCO)cc21 [BINIMETINIB]" class_label=inactive
compound="FC(F)(F)c1ccc(/C=C/c2nc(COc3ccc(CCCCn4ccnn4)cc3)co2)cc1 [MUBRITINIB]" class_label=inactive
compound="CN1C/C=C/CCOc2cccc(c2)-c2ccnc(n2)Nc2cccc(c2)C1 [ZOTIRACICLIB]" class_label=inactive
compound="COc1cc([C@@H]2c3cc4c(cc3[C@H](O)[C@H]3COC(=O)[C@@H]23)OCO4)cc(OC)c1OC [AXL-1717]" class_label=inactive
compound="CO[C@H]1C[C@@H]2CC[C@@H](C)[C@@](O)(O2)C(=O)C(=O)N2CCCC[C@H]2C(=O)O[C@H]([C@H](C)C[C@@H]2CC[C@@H](OP(C)(C)=O)[C@H](OC)C2)CC(=O)[C@H](C)/C=C(\\C)[C@@H](O)[C@@H](OC)C(=O)[C@H](C)C[C@H](C)/C=C/C=C/C=C/1C [RIDAFOROLIMUS]" class_label=inactive
compound="CN(C[C@@H]1COCCO1)S(=O)(=O)Nc1ccc2ccc3ncc(-c4cnn(C)c4)cc3c(=O)c2c1 [MK-2461]" class_label=inactive
compound="Cc1nc2cc(-n3ncc(C(=O)c4cc5ccccc5[nH]4)c3N)ccc2[nH]1 [FGFR INHIBITOR DEBIO 1347]" class_label=inactive
compound="CNC(=O)c1cccc2cc(Oc3ccnc4cc(OCC5(N)CC5)c(OC)cc34)ccc12 [LUCITANIB]" class_label=inactive
compound=C=CC(=O)N1CCC[C@H](n2c(=O)n(-c3ccc(Oc4ccccc4)cc3)c3c(N)ncnc32)C1 class_label=inactive
compound="Cc1cc(C(=O)NOCCO)c(Nc2ccc(I)cc2F)n(C)c1=O [AZD-8330]" class_label=inactive
compound="COc1cc2c(Nc3ccc(Cl)c(Cl)c3F)ncnc2cc1OC[C@@H]1C[C@@H]2CN(C)C[C@@H]2C1 [TESEVATINIB]" class_label=inactive
compound="COCC(=O)NC/C=C/c1ccc2ncnc(Nc3ccc(Oc4ccc(C)nc4)c(C)c3)c2c1 [CP-724714]" class_label=inactive
compound="NC1(c2ccc(-c3nc4ccn5c(=O)[nH]nc5c4cc3-c3ccccc3)cc2)CCC1 [MK-2206]" class_label=inactive
